- assay explanation: chemical genetic growth profiling, strain panel (AID 1159580);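 also: tested at 20 µM; growth read once vehicle control cultures reached saturation at 30 °C; lower values mean less growth of the strain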
- test context: S. cerevisiae deletion strains, growth OD, locus YAL026C, strain drs2
Screen size: about 5,500 compounds; about 2,000 (36%) were called active. Roughly 18% stayed inconclusive and do not appear here. Rule as the data show it: active = normalized growth mostly below about 0.91 (no sharp cut-off); inconclusive = no clear call, values can overlap the other calls; inactive = mostly above about 0.92. This is one part of the list.
Response enum: active, inactive

Would you please look over these solved cases?
molecule	label
COc1ccc2c(c1)CCC1C2CCC2(C)C1C[C@@H](O)C2O (some centres not stated)	active
CC(C)[N+](C)(CCC(C(N)=O)(c1ccccc1)c1ccccc1)C(C)C	inactive
CN(C)c1ccc2nc3ccc(=[N+](C)C)cc-3sc2c1	inactive
CN[C@@H]1[C@@H](O)C(OC2[C@@H](N)C[C@@H](N)[C@H](O[C@H]3O[C@H](C(C)O)[C@@H](O)[C@H](O)[C@H]3N)[C@H]2O)OC[C@]1(C)O (some centres not stated)	inactive
Cc1cc(C2CCCCC2)n(O)c(=O)c1	active
C[C@]12CCC3c4ccc(OS(=O)(=O)O)cc4CCC3C1CC[C@H]2O (some centres not stated)	inactive
CC(C)(C)NCC(O)c1cc(O)cc(O)c1 (configuration not stated)	inactive
C[C@@H]1CC[C@@]2(OC1)OC1CC3C4CC=C5C[C@@H](O)CC[C@]5(C)C4CC[C@]3(C)C1[C@@H]2C (some centres not stated)	inactive

Okay, now this molecule:
IN: Hi, do you know how COc1ccc2c(c1)CCC1C2CC[C@@]2(C)C1CC[C@@H]2O (some centres not stated) came out in this test?
OUT: active

* * *

- assay explanation: chemical genetic growth profiling, strain panel (AID 1159580);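 also: tested at 20 µM; growth read once vehicle control cultures reached saturation at 30 °C; lower values mean less growth of the strain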
- test context: S. cerevisiae deletion strains, growth OD, locus YOR265W, strain rbl2
Hit rate of the full screen: of about 5,500 compounds, about 2,000 (36%) were called active. Roughly 18% stayed inconclusive and do not appear here. Rule as the data show it: active = normalized growth mostly below about 0.91 (no sharp cut-off); inconclusive = no clear call, values can overlap the other calls; inactive = mostly above about 0.92. Some of the results follow.
Please reply with one of these outcomes: true (active), false (inactive)

Solved entries (count: 3):
compound	label
NS(=O)(=O)c1cc(C2(O)NC(=O)c3ccccc32)ccc1Cl (stereo unspecified)	false
C[C@@H]1O[C@@H](OC[C@H]2OC(Oc3c(-c4ccc(O)c(O)c4)oc4cc(O)cc(O)c4c3=O)[C@H](O)[C@@H](O)[C@@H]2O)[C@H](O)[C@H](O)[C@H]1O (stereo partly specified)	false
C[C@]12CCC3c4ccc(O)cc4CCC3C1CC[C@@H]2O (stereo partly specified)	false

IN: Just curious, what result did `O=c1cc(-c2ccc(O)cc2)oc2cc(O[C@@H]3O[C@H](CO)[C@@H](O)[C@H](O)[C@H]3O)cc(O)c12` get here?
OUT: false

IN: State the result this test recorded for C[N+](C)(C)CC(O)CC(=O)O (stereo unspecified) .
OUT: false

IN: // param item: CC(C)c1c(O)ccc2c1CCC1C(C)(C)CCC[C@]21C (stereo partly specified) ; yields the recorded call
OUT: true

IN: So what was the verdict on `COc1ccc2ccc(=O)oc2c1` in this test?
OUT: false

IN: Entry C[C@]12C=CC(=O)C=C1CCC1C2[C@@H](O)C[C@@]2(C)C1CC[C@]2(O)C(=O)COP(=O)(O)O (stereo partly specified) : call = ?
OUT: false

IN: // outcome(item) with item = CC(C)c1c(O)c(-c2cc3c(c(C(C)C)c2O)CCC2C(C)(C)CCC[C@]32C)cc2c1CCC1C(C)(C)CCC[C@]21C (stereo partly specified)
OUT: false

IN: Look up the recorded call for C[C@H]1O[C@H](OC2[C@@H](O)[C@@H](O)C(O)[C@H](O)[C@H]2O)[C@@H](N)C[C@@H]1N=C(N)C(=O)O (stereo partly specified) in this test.
OUT: false

IN: // return assay outcome for O=C(Cc1cccs1)NC1C(=O)N2C(C(=O)[O-])=C(C[n+]3ccccc3)CSC12 (stereo unspecified)
OUT: false

IN: What is the recorded call for this compound in the test? `COC1=CC(=O)C(O)=C/C1=C\C=C\c1ccccc1`
OUT: true

IN: In this assay, the call recorded for `COc1cc(OC)c2ccc(=O)oc2c1` was what?
OUT: false

IN: Fill in: this test's call for `COc1ccc(-c2oc3cc(O[C@H]4O[C@H](CO)[C@@H](O)[C@H](O)[C@H]4O)c(OC)c(O)c3c(=O)c2OC)cc1O` is ___
OUT: false
